Values from patent US20240218057A1

targetOrSystem: T1, SARS-COV-2 RBD (SARS-COV-2, UniProt P0DTC2 319-539)
T1 construct: also called WT RBD
assaySummary: ELISA, RBD coated
measurementName: EC50 (ng/mL)
Note: unit ng/mL is implicit; provide only the numeric part.

Prompt line: // EC50 lookup, key: C955 (antibody, V domains shown, IgG; V domains only) VH: QVQLQQWGAGLLKPSETLSLTCAVYGGTFSGYSWTWIRQPPGKGLDWIGEINHSGSTNYNPSLKSRVTISVDTSKNQFSLKLSSVTAADTAVYYCARAGFGFVITSRSGTDPLFDYWGQGTLVTVSS VL: QSVLTQPPSVSGAPGQRVTISCTGSSSNIGAGYDVHWYQQLPGTAPKVLIYGNNNRPSGVPDRFSGSKSGTSASLAITGLQAEDEADYYCQSYDTSLSGSRVFGGGTKLTVL
Response line: 2.44

Prompt line: // EC50 lookup, key: C1019 (antibody, V domains shown, IgG; V domains only) VH: QVQLVESGGGVVQPGTPLRLSCAASGFTFSSYAMHWVRQAPGKGLEWVAMISYDGGNKYYADSVKGRFTISRDNSKNTLFLQMNSLRGEDTAVYYCARSFSIRIGHKDNWGQGTLVTVSS VL: NFMLTQPHSVSESPGKTVTISCTGSSGSIANNYVQWYQQRPGSAPTPVIYEDDQRPSGVPDRFSGSIDSSSNSASLSISGLKTEDEADYYCQSYDSTNFWVFGGGTKLTVL
Response line: 2.8

Prompt line: // EC50 lookup, key: C1020 (antibody, V domains shown, IgG; V domains only) VH: QVQLVQSGAEVKKPGASVKISCKASGYSFSNYYIHWVRQAPGQGLEWMGIINPSGNSISYAQKFQGRVTMTGDTSTSTVYMELSSLRSEDTAVYYCARSVFPVPAAGGCDYWGQGTLVTVSS VL: DIQMTQSPSSLSASVGDRVTITCRASQSITTSLNWYQQKPGKAPKLLIYSASTLESGVPSRFSGSGSGTDFTLTISSLQPEDFATYYCQQTYRAPPYTFGQGTKLEIK
Response line: 2.06
